Biological target: CDK8/cyclin C (Homo sapiens (Human))
Sequence (P49336 whole entry): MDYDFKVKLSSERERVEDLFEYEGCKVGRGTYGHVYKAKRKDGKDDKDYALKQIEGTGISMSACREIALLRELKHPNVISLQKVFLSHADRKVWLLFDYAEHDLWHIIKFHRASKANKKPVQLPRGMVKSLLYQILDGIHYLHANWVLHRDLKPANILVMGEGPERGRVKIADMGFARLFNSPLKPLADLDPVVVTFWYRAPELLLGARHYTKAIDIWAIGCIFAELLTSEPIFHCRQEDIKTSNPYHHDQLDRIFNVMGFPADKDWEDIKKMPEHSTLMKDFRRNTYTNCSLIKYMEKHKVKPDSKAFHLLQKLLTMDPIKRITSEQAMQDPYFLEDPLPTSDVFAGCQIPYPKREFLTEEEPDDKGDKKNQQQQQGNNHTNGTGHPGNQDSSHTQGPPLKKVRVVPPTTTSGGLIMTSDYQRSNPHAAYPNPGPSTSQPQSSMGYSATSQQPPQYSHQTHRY
Sequence (P24863 whole entry partner): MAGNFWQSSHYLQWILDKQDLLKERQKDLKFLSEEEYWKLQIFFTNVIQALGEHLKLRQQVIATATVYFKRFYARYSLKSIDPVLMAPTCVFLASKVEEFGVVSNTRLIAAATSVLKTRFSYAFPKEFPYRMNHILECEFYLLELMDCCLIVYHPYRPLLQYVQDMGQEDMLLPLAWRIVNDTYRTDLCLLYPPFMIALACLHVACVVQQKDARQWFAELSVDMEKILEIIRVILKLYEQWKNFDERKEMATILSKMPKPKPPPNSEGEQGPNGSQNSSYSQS
Test: CDK8 biochemical assay (LanthaScreen TR-FRET, Kinase Tracer 236 displacement)
Details: 5 nM CDK8/cyclin C, 10 nM Kinase Tracer 236, 60 min incubation
Experimental: This assay is used to identify compounds which competitively interact with the binding pocket of the CDK8 kinase. Assay-ready plates (ARPs; Proxiplate-384 PLUS, white, PerkinElmer) with compound solution in 100% DMSO are generated on an Access Labcyte Workstation with the Labcyte Echo 55x. […] The assay runs on a fully automated robotic system. […] After 60 min incubation time the signal is measured in a PerkinElmer Envision HTS Multilabel Reader using the TR-FRET specs from PerkinElmer. […]
Measure: IC50 (nM)
Your answer is read as nM, so omit the unit and give the number.

In the examples that follow, each entry is paired with its recorded IC50.
{"columns": ["Molecule", "Assayed System", "IC50 [nM]"],
 "data": [
  ["O=C(Cn1cc(-c2ccc(-c3cncc4ccncc34)cc2)cn1)N1CCOCC1 [I-016]", "CDK8/cyclin C (Homo sapiens (Human))", 1.6],
  ["CN1CCC(N(C)C(=O)Cn2cc(-c3ccc(-c4cncc5ccccc45)cc3)cn2)CC1 [I-002]", "CDK8/cyclin C (Homo sapiens (Human))", 1.5]
]}

# lookup: IC50 of CN(C)C(=O)Cn1cc(-c2ccc(-c3cncc4ccc(CO)cc34)cc2)cn1 [I-010]
1.3

Please answer likewise for CN(C)C(=O)Cn1cc(-c2ccc(-c3cncc4ccccc34)cc2)c(Cl)n1 [I-004]
1.8
